# EXPERIMENTAL SYSTEM: T1, human integrin αvβ8 (soluble, construct not stated), P06756;P26012
# T1 chain 1: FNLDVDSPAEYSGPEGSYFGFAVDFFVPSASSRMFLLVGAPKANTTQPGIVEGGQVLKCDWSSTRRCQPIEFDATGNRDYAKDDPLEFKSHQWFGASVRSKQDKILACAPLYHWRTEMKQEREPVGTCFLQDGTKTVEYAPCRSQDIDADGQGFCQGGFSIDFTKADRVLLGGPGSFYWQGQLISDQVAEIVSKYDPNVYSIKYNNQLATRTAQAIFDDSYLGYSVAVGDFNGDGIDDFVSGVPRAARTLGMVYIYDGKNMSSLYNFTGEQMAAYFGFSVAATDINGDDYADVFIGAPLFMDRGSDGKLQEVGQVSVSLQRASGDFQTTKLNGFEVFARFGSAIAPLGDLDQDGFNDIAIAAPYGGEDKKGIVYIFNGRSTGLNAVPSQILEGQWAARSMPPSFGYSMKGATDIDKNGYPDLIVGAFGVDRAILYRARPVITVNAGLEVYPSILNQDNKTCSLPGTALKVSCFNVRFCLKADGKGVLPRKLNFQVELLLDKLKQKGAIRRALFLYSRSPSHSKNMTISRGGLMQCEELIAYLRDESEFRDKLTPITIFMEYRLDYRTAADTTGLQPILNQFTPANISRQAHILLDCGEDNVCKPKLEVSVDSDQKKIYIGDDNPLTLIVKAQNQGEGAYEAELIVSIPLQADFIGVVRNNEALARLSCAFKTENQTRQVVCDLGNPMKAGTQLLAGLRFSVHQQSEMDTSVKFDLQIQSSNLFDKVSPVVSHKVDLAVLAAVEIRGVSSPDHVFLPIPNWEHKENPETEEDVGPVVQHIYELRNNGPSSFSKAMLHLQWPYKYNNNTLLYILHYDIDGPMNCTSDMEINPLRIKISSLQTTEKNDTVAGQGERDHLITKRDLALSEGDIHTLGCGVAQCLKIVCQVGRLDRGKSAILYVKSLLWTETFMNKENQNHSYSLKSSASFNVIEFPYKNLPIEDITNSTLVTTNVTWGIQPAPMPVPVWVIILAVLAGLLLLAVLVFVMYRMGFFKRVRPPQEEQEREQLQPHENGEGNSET
# T1 chain 2: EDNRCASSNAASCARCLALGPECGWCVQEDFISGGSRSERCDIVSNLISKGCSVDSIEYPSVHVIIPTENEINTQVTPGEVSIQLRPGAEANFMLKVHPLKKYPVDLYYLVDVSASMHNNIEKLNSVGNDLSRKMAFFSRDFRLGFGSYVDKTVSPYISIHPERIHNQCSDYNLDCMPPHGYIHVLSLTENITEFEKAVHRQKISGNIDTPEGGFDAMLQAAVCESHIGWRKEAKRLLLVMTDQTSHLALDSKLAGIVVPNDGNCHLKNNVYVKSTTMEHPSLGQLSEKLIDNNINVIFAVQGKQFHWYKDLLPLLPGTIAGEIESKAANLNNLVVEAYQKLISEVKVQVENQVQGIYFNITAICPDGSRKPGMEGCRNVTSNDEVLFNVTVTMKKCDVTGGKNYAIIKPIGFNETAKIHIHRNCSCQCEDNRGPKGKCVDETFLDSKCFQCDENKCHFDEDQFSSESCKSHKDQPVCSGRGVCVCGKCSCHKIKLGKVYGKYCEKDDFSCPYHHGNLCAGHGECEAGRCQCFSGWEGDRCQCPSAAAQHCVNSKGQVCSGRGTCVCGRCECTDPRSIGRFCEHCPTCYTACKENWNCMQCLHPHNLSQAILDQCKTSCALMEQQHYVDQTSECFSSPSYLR
# ASSAY SUMMARY: BLI
# CONDITION SUMMARY: chain shown with the change;; parent: 1.9 nM

[
  {
    "BINDER": "B8_BP_dslf V15T; Y16I (protein) TKCVVRFNFRGDMATIALKAVKDHLKKEGPHWNITTHNDDEVYLVVRGIHESDAKRIAKWVESTIPGISVETQCD",
    "Kd [nM]": 0.1
  },
  {
    "BINDER": "B8_BP_dslf Y16I (protein) TKCVVRFNFRGDMAVIALKAVKDHLKKEGPHWNITTHNDDEVYLVVRGIHESDAKRIAKWVESTIPGISVETQCD",
    "Kd [nM]": 0.2
  },
  {
    "BINDER": "B8_BP_dslf M13L; Y16I (protein) TKCVVRFNFRGDLAVIALKAVKDHLKKEGPHWNITTHNDDEVYLVVRGIHESDAKRIAKWVESTIPGISVETQCD",
    "Kd [nM]": 0.3
  },
  {
    "BINDER": "B8_BP_dslf M13L; V15T; Y16I (protein) TKCVVRFNFRGDLATIALKAVKDHLKKEGPHWNITTHNDDEVYLVVRGIHESDAKRIAKWVESTIPGISVETQCD",
    "Kd [nM]": 0.3
  }
]
